test system: OVCAR-8 ovarian; assay: NCI-60 one-dose screen, 48 h (100 = growth as untreated, 0 = no growth, -100 = all killed); conditions: 10 µM unless noted
The panel holds about 83,000 compounds, 20% with a hit somewhere; the sample as a whole holds those more often.
Task for the reader: assign each of the following molecules its reported growth.
One number for each entry, in %.

molecule: CSc1nc2sc3c(c2c(=O)n1-c1ccc([N+](=O)[O-])cc1)CCCCC3
growth / %: 73
--
molecule: COc1cc(-n2cc(-c3cc(O)c(C/C=C(\C)CCC=C(C)C)c(O)c3)nn2)cc2c1O[C@]1(C)CC[C@@H](O)C(C)(C)[C@H]1C2
growth / %: 16.4
--
molecule: COc1ccc2cc(C(=O)c3coc4ccc(O)cc34)ccc2c1
growth / %: 106

For each of the items listed, what is its growth?
1. CCc1ccc(C(=O)/C=C/C23c4ccccc4C(c4ccccc42)C2C(=O)NC(=O)C23)cc1 (centres undefined)
2. Cn1c(O)c(C=NCCN=Cc2c(O)n(C)c(=O)n(C)c2=O)c(=O)n(C)c1=O
3. CC1=C(C(=O)OC(C)C)C(c2ccc3c(c2)OCO3)NC(=S)N1 (centres undefined)
4. CS(=O)(=O)Nc1cc(-c2ccc3ncnc(Nc4ccc5c(cnn5Cc5ccccn5)c4)c3c2)cnc1Cl
5. C=CCn1cc(-c2nc3ccccc3s2)c2cc(-c3ccc4c5c(cccc35)C(=O)N(N)C4=O)ccc21
6. CCN(CC)CCOc1ccc(-c2c(-c3ccccc3)c(=O)oc3ccccc23)cc1

-- reply
[-20, 103, 102, 90.3, 102, 90.6]

----------
Task for the reader: assign each of the following molecules its reported growth.
tested on: M14 melanoma; test: NCI-60 one-dose screen, 48 h (100 = growth as untreated, 0 = no growth, -100 = all killed); settings: 10 µM unless noted
Compounds without any hit were thinned out: in the full panel of roughly 83,000, 20% have a hit.
Give bare numbers, in %.

molecule: CCOC(=O)c1cnc2ccccc2c1Cl
experimentalSystem: M14 melanoma
dataValue: 92.2

For each of the items listed, what is its growth?
1. CN(Cc1ccc(C(F)(F)F)cc1)CC(O)C(=O)Nc1ccc(Cl)cc1 (stereo unspecified)
2. O=C(Nc1ccc(-c2nc(N3CCOCC3)c3cccn3n2)cc1)Nc1cccnc1
3. CC/C(=C(/c1ccc(Cl)cc1)c1ccc(OCCN2CCCC2)cc1)c1ccc(OC)cc1
4. CCN1C(=O)N(CC)C2C1NN=c1s/c(=C\c3cccc([N+](=O)[O-])c3)c(=O)n12 (stereo unspecified)
5. OCCOCCN(Cc1ccccn1)Cc1cc(I)cc(I)c1O
6. O=C(CSc1nnc2n1S(=O)(=O)c1ccccc1N2c1ccccc1)Nc1nc2ccc(F)cc2s1

-- reply
-49.8
-0.739
50.3
12.2
81.1
96.5

----------
system: A549/ATCC NSCLC; experiment: NCI-60 one-dose screen, 48 h; details: 10 µM unless noted
This is part of a sample that, as a whole, favours compounds with a hit. Of some 83,000 tested, about 20% had one in any assay. Calls of active or inactive are those of the source. Rule for the calls: active = growth percent below 10; inactive = the rest.
Give one outcome, nothing more. List: yes for active, no for inactive

compound: O=C1CC(N2C(=O)/C(=C/C(Cl)=C\c3ccc([N+](=O)[O-])cc3)SC2=S)C(=O)N1c1ccc(Cl)cc1 (stereo not given)
labelValue: no
--
compound: COC(=O)CCC(=O)C(=O)OC
labelValue: no
--
compound: C=CCn1c(SCC(=O)NCc2cc(C)c(O)c(C)c2)nc2ccc(Cl)cc2c1=O
labelValue: no

Consider the additional compound presented here.
-- ask Can you look up the reported call for CN(CCn1sc(=O)n(Cc2ccccc2)c1=O)Cc1ccc2c(Cl)cc(Cl)c(O)c2n1 for me?
-- reply no

----------
test system: SF-539 CNS; test: NCI-60 one-dose screen, 48 h (100 = growth as untreated, 0 = no growth, -100 = all killed); conditions: 10 µM unless noted
About 83,000 compounds went through this panel and 20% of them were active in at least one assay; those are over-represented in the sample as a whole.
quantity: growth (%)
Answers are plain numbers, in %.

Some solved cases for reference:
givenSmiles: N#Cc1cnc(NCCc2ccncc2)nc1-n1cnc2ccccc21
growth, %: 61.3
//
givenSmiles: CCCCC(=O)Nc1ncc(Cc2ccc(Cl)cc2)s1
growth, %: 73.5

For each of the items listed, what is its growth?
1. CCOC(=O)C1=C(NC)OCC1=O
2. CCOC(=O)c1ccc2[nH]c(O)c(C(=Nc3ccc(N(C)C(=O)CN4CCN(C)CC4)cc3)c3ccccc3)c2c1
3. COc1cc(-c2cc(-c3cccs3)c(C#N)c(N3CCOCC3)n2)cc(OC)c1OC
4. CC1(C)CC[C@]2(c3nnc(-c4ccncc4)o3)CC[C@H]3C(=CC[C@H]4[C@@]3(C)CC[C@H]3C(C)(C)C(=O)CC[C@]43C)[C@@H]2C1
5. COc1cc(-c2cc(-c3ccc(N(C)C)cc3)nc(N3CCC(O)CC3)c2C#N)cc(OC)c1OC
6. CN1CCN(c2ccc(NC(=O)c3cncnc3Nc3ccc(OCc4ccccn4)c(Cl)c3)cc2)CC1
7. COc1ccc(Cc2cc(-c3ccccc3)nn(Cc3ccccc3)c2=O)cc1OC
8. O=C1/C(=C/c2ccc(Cl)cc2)COc2ccc(O)cc21

-- reply
104
-91.1
58.9
76.3
-0.969
-12.7
63.4
88.1

For each of the items listed, what is its growth?
1. O=C1Nc2ccccc2/C1=C\c1nc(-c2ccccc2)n2ccccc12
2. Cc1ccc(-c2nc3nc(-c4ccccc4)nc(N4CCNCC4)c3o2)cc1
3. O=[N+]([O-])c1ccc(-c2nc(N3CCOCC3)c3c4c(sc3n2)CCCC4)cc1
4. O=Nc1c(-c2c(O)[nH]c3ncccc23)[nH]c2ccccc12

-- reply
101
-93.4
102
50.3

For each of the items listed, what is its growth?
1. O=C(O)c1ccc(-n2cc(/C=N/Nc3ccc(F)cc3)c(-c3cc4ccccc4oc3=O)n2)cc1
2. CN1CCN(C(=O)OCc2ccc3c(Cl)cc(Cl)c(O)c3n2)CC1
3. Cn1cc(-c2nonc2-c2c[nH]c3ccc(Br)cc23)c2cc(Br)ccc21
4. CN1CCN(Cc2ccc(NC(=O)c3cncc(C#Cc4cnc(N)c5ccccc45)c3)cc2C(F)(F)F)CC1
5. C/C(=C(/c1ccc(Cl)cc1)c1ccc(OCCN2CCCC2)cc1)c1ccc(Cl)cc1
6. CN1C(=O)/C(=C/c2cn(-c3ccccc3)nc2-c2ccccc2)SC1=S

-- reply
85.9
66.2
46
-97.8
91.8
99.5

----------
test system: NCI-H460 lung; assay: NCI-60 one-dose screen, 48 h; conditions: 10 µM unless noted
Compounds without any hit were thinned out: in the full panel of roughly 83,000, 20% have a hit. Calls of active or inactive are those of the source. Rule for the calls: active = growth percent below 10; inactive = the rest.
Give one outcome, nothing more. List: active, inactive

Reference set (3 entries):
givenSmiles: COC(=O)c1c2c(c(C)[n+]([O-])c1C)C(=O)C=C(NCc1ccc(OC)cc1)C2=O
labelValue: active

givenSmiles: COc1cc(-n2cc(-c3cc(O)c(C/C=C(\C)CCC=C(C)C)c(O)c3)nn2)cc2c1O[C@]1(C)CC[C@@H](O)C(C)(C)[C@H]1C2
labelValue: inactive

givenSmiles: CCOC(=O)C(=Cc1cccc(Cl)c1)C(=O)OCC
labelValue: inactive

-- ask Can you look up the reported call for CCCCCC(=O)OCC(=O)O[C@@H]1C[C@]2(C(C)C)O[C@@]1(C)[C@@H]1CC[C@@H](C)[C@H]1[C@@H]2OC(=O)/C=C/c1ccccc1 for me?
-- reply inactive

-- ask Can you look up the reported call for Nc1c(C(=O)Nc2ccncc2)sc2nc3c(cc12)CCCCCC3 for me?
-- reply inactive

----------
tested on: RPMI-8226 leukemia; assay: NCI-60 one-dose screen, 48 h (100 = growth as untreated, 0 = no growth, -100 = all killed); conditions: 10 µM unless noted
This is part of a sample that, as a whole, favours compounds with a hit. Of some 83,000 tested, about 20% had one in any assay.
Checkbox rule: growth lower than 50% = TRUE; growth not lower than 50% = FALSE.

compound: CCCCC(=O)c1ccco1
labelValue: FALSE

compound: COc1ccc(/C=C2\C(=O)N=C3N2NC(c2cc(Br)ccc2O)C=C(C)N3c2ccccc2)cc1 (stereo unspecified)
labelValue: FALSE

compound: O=C(c1ccccc1)C1C(=O)N2C(=S)N(c3ccccc3)C(=O)C2C1c1ccc(Cl)cc1 (stereo unspecified)
labelValue: FALSE

Consider the additional compound presented here.
-- ask Determine if CCN(CC)CCSc1nc(-c2ccccc2)c(C#N)c(=O)[nH]1 shows growth strictly lower than 50%.
-- reply FALSE

----------
tested on: COLO 205 colon; assay: NCI-60 one-dose screen, 48 h; conditions: 10 µM unless noted
This is part of a sample that, as a whole, favours compounds with a hit. Of some 83,000 tested, about 20% had one in any assay. Active and inactive are the calls of the source. Rule for the calls: active = growth percent below 10; inactive = the rest.
Give one outcome, nothing more. List: label 1 (active), label 0 (inactive)

Reference set (6 entries):
molecule: C=C1C(=O)O[C@H]2[C@H]1CC/C(COC(=O)CCSCCC(=O)OC/C1=C/CC[C@@]3(C)O[C@H]3[C@H]3OC(=O)C(=C)[C@@H]3CC1)=C\CC[C@@]1(C)O[C@@H]21
labelValue: label 1

molecule: C#CCOc1ccc2ncnc(Nc3cccc(NC(=O)C=C)c3)c2c1
labelValue: label 0

molecule: N#Cc1cnc(NCCc2ccncc2)nc1-n1cnc2ccccc21
labelValue: label 0

molecule: COc1ccc(-c2nnc3n(C)c(=O)c4ccccc4n23)cc1N
labelValue: label 1

molecule: C#Cc1ccc(NC(=O)c2ccc(/C=C/C(=O)c3nccn3C)cc2)cc1
labelValue: label 1

molecule: Cc1cc(Cl)ccc1NC(=O)c1cc2ccccc2cc1O
labelValue: label 0

-- ask Can you look up the reported call for COc1ccc2c(O)c(/C=C3\N=Nc4ccccc43)oc2c1C[C@@H]1CCNC[C@H]1F for me?
-- reply label 0

-- ask Can you look up the reported call for CS(=O)(=O)Nc1cc(-c2ccc3ncnc(Nc4c(Cl)ccc5c4OCO5)c3c2)cnc1Cl for me?
-- reply label 1

-- ask Can you look up the reported call for CC(O)c1cnc(/C=C2\SC(=S)N(Cc3ccccc3)C2=O)s1 (centres undefined) for me?
-- reply label 0
